K inact/Ki by entry:
- subject_of_test: Chymase (Homo sapiens)
- Sequence (whole entry): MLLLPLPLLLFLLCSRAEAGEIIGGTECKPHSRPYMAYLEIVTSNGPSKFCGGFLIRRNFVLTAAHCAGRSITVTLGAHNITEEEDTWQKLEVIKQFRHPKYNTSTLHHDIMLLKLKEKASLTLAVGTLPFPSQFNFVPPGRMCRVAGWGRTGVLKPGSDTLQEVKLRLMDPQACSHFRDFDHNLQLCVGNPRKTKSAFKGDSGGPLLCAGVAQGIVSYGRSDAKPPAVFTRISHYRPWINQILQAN
- test_name: Second order rate constant for the inhibition of human skin chymase.

{"molecule": "O=C(OCN1C(=O)C(Cc2ccccc2)N(Cc2ccccc2)S1(=O)=O)C(O)c1ccccc1 (stereo unspecified)", "subject_of_test": "Chymase (Homo sapiens)", "outcome_measure": "K inact/Ki", "endpoint_value": "39900 M⁻¹ s⁻¹"}
{"molecule": "Nc1ccc2nc(SCN3C(=O)C(Cc4ccccc4)N(Cc4ccccc4)S3(=O)=O)sc2c1 (stereo unspecified)", "subject_of_test": "Chymase (Homo sapiens)", "outcome_measure": "K inact/Ki", "endpoint_value": "14700 M⁻¹ s⁻¹"}
{"molecule": "O=C1C(Cc2ccccc2)N(Cc2ccccc2)S(=O)(=O)N1CS(=O)(=O)c1ccccc1 (stereo unspecified)", "subject_of_test": "Chymase (Homo sapiens)", "outcome_measure": "K inact/Ki", "endpoint_value": "12500 M⁻¹ s⁻¹"}
{"molecule": "O=C(O)CC(=O)OCN1C(=O)C(Cc2ccccc2)N(Cc2ccccc2)S1(=O)=O (stereo unspecified)", "subject_of_test": "Chymase (Homo sapiens)", "outcome_measure": "K inact/Ki", "endpoint_value": "45700 M⁻¹ s⁻¹"}
{"molecule": "O=C(O)CS(=O)(=O)CN1C(=O)C(Cc2ccccc2)N(Cc2ccccc2)S1(=O)=O (stereo unspecified)", "subject_of_test": "Chymase (Homo sapiens)", "outcome_measure": "K inact/Ki", "endpoint_value": "10800 M⁻¹ s⁻¹"}

Lookup: Quick one: K inact/Ki for CN1C(Cc2ccccc2)C(=O)N(CSc2nc3ccccc3o2)S1(=O)=O (stereo unspecified) ?
Found: 6250 M⁻¹ s⁻¹

Lookup: K inact/Ki for O=C1C(Cc2ccccc2)N(Cc2ccccc2)S(=O)(=O)N1CSc1nc2ccccc2o1 (stereo unspecified) ?
Found: 5430 M⁻¹ s⁻¹

Lookup: Quick one: K inact/Ki for O=C(O)CCS(=O)(=O)CN1C(=O)C(Cc2ccccc2)N(Cc2ccccc2)S1(=O)=O (stereo unspecified) ?
Found: 23400 M⁻¹ s⁻¹

Lookup: Looking for the measured K inact/Ki of O=C(O)c1ccc(S(=O)(=O)CN2C(=O)C(Cc3ccccc3)N(Cc3ccccc3)S2(=O)=O)cc1 (stereo unspecified) , can you help?
Found: 186000 M⁻¹ s⁻¹

Lookup: Reported K inact/Ki for CC(=O)OCN1C(=O)C(Cc2ccccc2)N(Cc2ccccc2)S1(=O)=O (stereo unspecified) : what is it?
Found: 21800 M⁻¹ s⁻¹

Lookup: Consider the molecule shown here: O=C(CO)OCN1C(=O)C(Cc2ccccc2)N(Cc2ccccc2)S1(=O)=O (stereo unspecified) What is its recorded K inact/Ki?
Found: 30500 M⁻¹ s⁻¹

Lookup: Bench note: what K inact/Ki did O=C1C(Cc2ccccc2)N(Cc2ccccc2)S(=O)(=O)N1CSc1nnc(-c2ccccc2)o1 (stereo unspecified) show?
Found: 5090 M⁻¹ s⁻¹

Lookup: Can you look up the measured K inact/Ki of O=C(O)c1cccc(S(=O)(=O)CN2C(=O)C(Cc3ccccc3)N(Cc3ccccc3)S2(=O)=O)c1 (stereo unspecified) for me?
Found: 13500 M⁻¹ s⁻¹

Lookup: Which K inact/Ki is reported for this molecule? CC(O)C(=O)OCN1C(=O)C(Cc2ccccc2)N(Cc2ccccc2)S1(=O)=O (stereo unspecified)
Found: 38500 M⁻¹ s⁻¹

Lookup: # input molecule: CS(=O)(=O)CN1C(=O)C(Cc2ccccc2)N(Cc2ccccc2)S1(=O)=O (stereo unspecified) ; wanted: its K inact/Ki
Found: 4600 M⁻¹ s⁻¹
